System: MCF7;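 also: secreted proteins added to cultured cells, EdU pulse at the end, nuclei found by Hoechst imaging, EdU status from nuclear versus surrounding ring intensity ratio, PBS as neutral control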
Test: percentage of EdU-negative (G0-arrested) nuclei per well, 72 h; higher = more G0 arrest
Details: protein concentration 0.225 µM; reference: sequence is the full UniProt precursor, the tested protein was the secreted form or ectodomain
assay.endpoint: percentage of EdU-negative (%)
Numbers only, in %.

MLGQVVTLILLLLLKVYQGKGCQGSADHVVSISGVPLQLQPNSIQTKVDSIAWKKLLPSQNGFHHILKWENGSLPSNTSNDRFSFIVKNLSLLIKAAQQQDSGLYCLEVTSISGKVQTATFQVFVFESLLPDKVEKPRLQGQGKILDRGRCQVALSCLVSRDGNVSYAWYRGSKLIQTAGNLTYLDEEVDINGTHTYTCNVSNPVSWESHTLNLTQDCQNAHQEFRFWPFLVIIVILSALFLGTLACFCVWRRKRKEKQSETSPKEFLTIYEDVKDLKTRRNHEQEQTFPGGGSTIYSMIQSQSSAPTSQEPAYTLYSLIQPSRKSGSRKRNHSPSFNSTIYEVIGKSQPKAQNPARLSRKELENFDVYS [Q9BZW8] ... 26.1
MWDLVLSIALSVGCTGAVPLIQSRIVGGWECEKHSQPWQVAVYSHGWAHCGGVLVHPQWVLTAAHCLKKNSQVWLGRHNLFEPEDTGQRVPVSHSFPHPLYNMSLLKHQSLRPDEDSSHDLMLLRLSEPAKITDVVKVLGLPTQEPALGTTCYASGWGSIEPEEFLRPRSLQCVSLHLLSNDMCARAYSEKVTEFMLCAGLWTGGKDTCGGDSGGPLVCNGVLQGITSWGPEPCALPEKPAVYTKVVHYRKWIKDTIAANP ... 24.8
MLDWRLASAHFILAVTLTLWSSGKVLSVDVTTTEAFDSGVIDVQSTPTVREEKSATDLTAKLLLLDELVSLENDVIETKKKRSFSGFGSPLDRLSAGSVDHKGKQRKVVDHPKRRFGIPMDRIGRNRLSNSRG ... 24.2
MDMAWQMMQLLLLALVTAAGSAQPRSARARTDLLNVCMNAKHHKTQPSPEDELYGQCSPWKKNACCTASTSQELHKDTSRLYNFNWDHCGKMEPTCKRHFIQDSCLYECSPNLGPWIRQVNQSWRKERILNVPLCKEDCERWWEDCRTSYTCKSNWHKGWNWTSGINECPAGALCSTFESYFPTPAALCEGLWSHSFKVSNYSRGSGRCIQMWFDSAQGNPNEEVAKFYAAAMNAGAPSRGIIDS [A0A087WXL1] ... 24
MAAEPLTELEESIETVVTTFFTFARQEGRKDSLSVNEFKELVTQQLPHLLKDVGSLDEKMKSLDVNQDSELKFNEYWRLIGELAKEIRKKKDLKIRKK ... 25.4

With those in mind, consider the next sequence.
Qu. Report value only: percentage of EdU-negative, MCF7, MQWLRVRESPGEATGHRVTMGTAALGPVWAALLLFLLMCEIPMVELTFDRAVASGCQRCCDSEDPLDPAHVSSASSSGRPHALPEIRPYINITILKGDKGDPGPMGLPGYMGREGPQGEPGPQGSKGDKGEMGSPGAPCQKRFFAFSVGRKTALHSGEDFQTLLFERVFVNLDGCFDMATGQFAAPLRGIYFFSLNVHSWNYKETYVHIMHNQKEAVILYAQPSERSIMQSQSVMLDLAYGDRVWVRLFKRQRENAIYSNDFDTYITFSGHLIKAEDD [Q9BXI9]
Ans. 29.5

Where these numbers come from: the supplement of paper PMC11316812
